assayed-target: Candida krusei clinical isolate, whole cells (Candida krusei)
assay-overview: FACS, IgG on fixed cells

# binder, measurement-unit, affinity
measured = [
    ("A2A12 IgG (antibody, V domains shown) VH: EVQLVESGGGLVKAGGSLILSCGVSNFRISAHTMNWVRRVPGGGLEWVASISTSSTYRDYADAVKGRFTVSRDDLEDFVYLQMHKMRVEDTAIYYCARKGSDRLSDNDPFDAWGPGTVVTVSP VL: GVVMTQSPSTLSASVGDTITITCRASQSIETWLAWYQQKPGKAPKLLIYKASTLKTGVPSRFSGSGSGTEFTLTISGLQFDDFATYHCQHYTAHTGATFGQGTRVEIKR", "nM", 50),
    ("A1E8 IgG (antibody, V domains shown) VH: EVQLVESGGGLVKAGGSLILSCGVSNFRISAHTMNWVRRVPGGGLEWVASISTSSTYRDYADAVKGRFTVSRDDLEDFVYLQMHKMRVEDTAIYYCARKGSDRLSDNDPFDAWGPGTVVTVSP VL: GVVMTQSPSTLSASVGDTITITCRASQSIETWLAWYQQKPGKAPKLLIYKASTLKTGVPSRFSGSGSGTEFTLTISGLQFDDFATYHCQHYTDHKGATFGQGTRVEIKR", "nM", 50),
    ("A5G10 IgG (antibody, V domains shown) VH: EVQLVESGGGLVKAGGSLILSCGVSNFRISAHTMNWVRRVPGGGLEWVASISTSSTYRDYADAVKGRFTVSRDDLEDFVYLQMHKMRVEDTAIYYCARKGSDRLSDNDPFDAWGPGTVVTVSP VL: GVVMTQSPSTLSASVGDTITITCRASQSIETWLAWYQQKPGKAPKLLIYKASTLKTGVPSRFSGSGSGTEFTLTISGLQFDDFATYHCQHYRPHTGATFGQGTRVEIKR", "nM", 50),
]

Source of measurements: patent US20110189183A1
